// data source = the supplement of paper PMC9112550

Tested on: Escherichia coli TOP10
Assay details: shrunken log2 fold change of peptide-encoding DNA abundance (4.5 h post-induction vs induction); higher = less antimicrobial activity (less host growth inhibition)
Experimental context: time post-induction: 4.5 h; library: site-saturation at positions 5, 18, 19, 20
Where shrunken log2 fold change equals or exceeds -0.02, the correct label is TRUE; where it does not, the label is FALSE.

Determine whether this sequence has shrunken log2 fold change no lower than -0.02: RRIRMRPPRLPRPRPRPGCFPRP
TRUE

---

System: Escherichia coli TOP10
Assay details: shrunken log2 fold change of peptide-encoding DNA abundance (4.5 h post-induction vs induction); higher = less antimicrobial activity (less host growth inhibition)
Experimental context: time post-induction: 4.5 h; library: site-saturation at positions 5, 18, 19, 20
Metric: shrunken log2 fold change

Please review the following examples before continuing.
| Construct sequence | Metric | Experimental result |
| --- | --- | --- |
| RRIRGRPPRLPRPRPRPNFIPRP | shrunken log2 fold change | -0.00471 |
| RRIRSRPPRLPRPRPRPALLPRP | shrunken log2 fold change | 0.42 |
| RRIRPRPPRLPRPRPRPMVGPRP | shrunken log2 fold change | 0.265 |

What measured shrunken log2 fold change is associated with RRIRVRPPRLPRPRPRPKADPRP on Escherichia coli TOP10?
0.0681

What measured shrunken log2 fold change is associated with RRIRVRPPRLPRPRPRPQRQPRP on Escherichia coli TOP10?
-0.207

What measured shrunken log2 fold change is associated with RRIRVRPPRLPRPRPRPMPYPRP on Escherichia coli TOP10?
0.122

What measured shrunken log2 fold change is associated with RRIRHRPPRLPRPRPRPPENPRP on Escherichia coli TOP10?
0.116

What measured shrunken log2 fold change is associated with RRIRNRPPRLPRPRPRPIDAPRP on Escherichia coli TOP10?
0.0153

---

shrunken log2 fold change for assorted sequences
Test system: Escherichia coli TOP10;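 note: peptides expressed intracellularly from a pBAD plasmid library in pooled LB shake-flask culture, induced with 0.3% L-arabinose, DNA abundance read by NGS, three biological replicates, DESeq2 with apeglm shrinkage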
Assay details: shrunken log2 fold change of peptide-encoding DNA abundance (4.5 h post-induction vs induction); higher = less antimicrobial activity (less host growth inhibition)
Experimental context: time post-induction: 4.5 h; library: site-saturation at positions 5, 18, 19, 20
A bare number is all that is needed in reply.

| Construct sequence | Experimental target | shrunken log2 fold change |
| --- | --- | --- |
| RRIRNRPPRLPRPRPRPYVFPRP | Escherichia coli TOP10 | -0.7 |
| RRIRDRPPRLPRPRPRPRTYPRP | Escherichia coli TOP10 | -0.126 |
| RRIRERPPRLPRPRPRPHIVPRP | Escherichia coli TOP10 | -0.0314 |
| RRIRCRPPRLPRPRPRPCPEPRP | Escherichia coli TOP10 | 1.16 |
| RRIRTRPPRLPRPRPRPEDGPRP | Escherichia coli TOP10 | 0.0244 |
| RRIRNRPPRLPRPRPRPKQWPRP | Escherichia coli TOP10 | 0.217 |
| RRIRYRPPRLPRPRPRPHLTPRP | Escherichia coli TOP10 | -0.466 |
| RRIRVRPPRLPRPRPRPEYVPRP | Escherichia coli TOP10 | -0.153 |
| RRIRQRPPRLPRPRPRPELGPRP | Escherichia coli TOP10 | 0.0387 |
| RRIRTRPPRLPRPRPRPRECPRP | Escherichia coli TOP10 | 0.00425 |

For the sequence RRIRFRPPRLPRPRPRPFHLPRP , what shrunken log2 fold change is on record?
-0.391

For the sequence RRIRHRPPRLPRPRPRPFPWPRP , what shrunken log2 fold change is on record?
-0.0989

For the sequence RRIRGRPPRLPRPRPRPRPCPRP , what shrunken log2 fold change is on record?
0.676

For the sequence RRIRYRPPRLPRPRPRPYTTPRP , what shrunken log2 fold change is on record?
-0.554

For the sequence RRIRYRPPRLPRPRPRPPPKPRP , what shrunken log2 fold change is on record?
1.24
